Kindly supply the reported Percent Effect values for the records listed here.
tested on: Wolbachia pipientis; test: Anti-Wolbachia Cell-Based Screen; type: functional; set-up: scale not given: in the data most compounds retested in dose-response had high values; conditions: 5 µM
In all, about 48,000 compounds went through this assay and about 13,000 (27%) showed an effect of 50% or more. The list shows a part of the results.
One number for each entry, in %.

Example cases with answers are listed next.
{"columns": ["Compound", "Percent Effect / %"],
 "data": [
  ["N#CCCN(Cc1ccco1)C(=O)CCCNC(=O)c1ccccc1", 3.869],
  ["CCOCCNCc1cc(O)c2cc(C)ccc2n1", -3.741],
  ["Cc1ccsc1C(=O)Nc1ccc(N2CCC(O)CC2)c(C#N)c1", -13.01],
  ["Cn1nc(CN2CCOCC2)c2c1CN(C(=O)c1ccc[nH]1)C2", -8.763],
  ["CC(C)n1nc(CN2CCCC2=O)c2c1CN(C(=O)c1ccc[nH]1)C2", 104.5],
  ["O=C(c1cc2c(s1)CCN2C(=O)C1CC1)N1CCCC1", -2.581],
  ["Cn1nc(CN2CCCC2)c2c1CN(C(=O)c1ccc[nH]1)CC2", -10.94],
  ["Cc1nnc(NCC2(c3ccccc3)CCOCC2)c(C#N)c1C", -16.92]
]}

Take each entry in turn and give its Percent Effect.
1. CC(C)n1nc(CN2CCCC2=O)c2c1CN(C(=O)c1ccco1)C2
2. O=C(c1ccco1)N1CCc2onc(CN3CCCC3)c2C1
3. Clc1cccnc1N1CCC(NCc2cccc3cn[nH]c23)C1 (stereo unspecified)

Solution:
[113.5, -15.89, 0.5809]

====

tested on: Wolbachia pipientis; experiment: Anti-Wolbachia Cell-Based Screen; type: functional; design: scale not given: in the data most compounds retested in dose-response had high values; conditions: 5 µM
Screen size: about 48,000 compounds; about 13,000 (27%) showed an effect of 50% or more. The list shows a part of the results.
Assign Percent Effect to each entry below.
One number for each entry, in %.

Reference set (3 entries):
{"columns": ["Molecule", "Test System", "Observed"],
 "data": [
  ["CC(C)Oc1cccc(C(=O)C2CCCN(C(=O)c3ccccn3)C2)c1 (stereo not drawn)", "Wolbachia pipientis", -12.09],
  ["COc1ccc2c(ccn2CCC(=O)Nc2nc[nH]n2)c1", "Wolbachia pipientis", 112.1],
  ["COc1ccccc1C(C)(C)NCc1ccc(C)o1", "Wolbachia pipientis", 6.664]
]}

Would you mind giving Percent Effect for every molecule in the list below?
1. N#Cc1ccc(N2CCC3(CC2)COCCN3Cc2cccnc2)cc1.O=C(O)C(F)(F)F
2. Cn1nc(Cn2cccc2)c2c1CN(Cc1ccoc1)C2.O=C(O)C(F)(F)F
3. N#Cc1ccc(N2CCC3(CCC(=O)N3Cc3cccnc3)CC2)nc1.O=C(O)C(F)(F)F.O=C(O)C(F)(F)F
4. CO[C@@H]1CC[C@H]2[C@H]1OCCN2CCOCc1ccccc1.O=C(O)C(F)(F)F
5. CN(CC1CC1)c1ccc2ccc(C(=O)NC3CCCCC3)cn12

Solution:
1. -19.62
2. -1.566
3. 109.7
4. 11.38
5. 118

For every record below, what is its Percent Effect?
1. COc1ccc2c(ccn2CCC(=O)Nc2ccc(C(N)=O)cc2)c1
2. Cc1ccc(N2CCC3(CCC(=O)N3Cc3ccncc3)CC2)nn1.O=C(O)C(F)(F)F
3. CCc1cc(CN2CCC(CCC(=O)Nc3ccccc3Cl)CC2)on1
4. Cc1ccc(C(=O)N2CCN(Cc3ccsc3)CC2)n1C
5. CCCc1c(C(=O)N2CCN(Cc3ccccn3)CC2)cnn1C
6. CO[C@@H]1CC[C@H]2[C@H]1OCCN2Cc1ccc(F)c(F)c1.O=C(O)C(F)(F)F

Solution:
1: 111.4; 2: 117.9; 3: 3.381; 4: -3.003; 5: 12.63; 6: 101.8

Could you report Percent Effect for every entry in the following list?
1. CCN(CC)c1ccc2ccc(C(=O)O)cn12
2. Cc1ccc(N2CCC3(CC2)CNC(=O)CO3)nn1.O=C(O)C(F)(F)F
3. Cc1nc(C)n(CC2CCCN2CC(=O)N(C)Cc2ccc(C)o2)n1 (stereo not drawn)
4. Cc1ncsc1C(=O)N1CCC(c2ccc3c(NC(C)C)n[nH]c3n2)C1 (stereo not drawn)
5. N#Cc1ccc(CN2CC3(CCCCN3c3cccnc3)CC2=O)cc1.O=C(O)C(F)(F)F (stereo not drawn)
6. CC(C)c1ncncc1C(=O)N1CCCN(Cc2cccs2)CC1

Solution:
-4.44
10.91
1.913
170.9
-4.907
14.44
